System: 252836-082-R-J2-PDC tumor spheroids, viability;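 further: spheroids exposed to agents for seven days before readout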
Test: Anticancer human tumor 252836-082-R-J2-PDC patient-derived head and neck squamous cell carcinoma cell line growth inhibition [PI3K]
Conditions: second compound 0.01 µM; first compound 1 µM; active compounds read low; spheroids with HUVEC and MSC
Source text: Combinatorial screen of targeted agents with the PI3K inhibitors inavolisib, alpelisib, duvelisib, and copanlisib in multi-cell type tumor spheroids A high-throughput screen of multi-cell type tumor spheroids was designed to identify active combinations of targeted small molecules and PI3K pathway inhibitors. […] Compounds. […] If the clinical Cmax for an agent had not been determined, the highest concentration tested was 10 microM. […]
Criterion: viability, T/C strictly less than 80%. Met: rule met. Not met: rule not met.

# example entries with known answers
C[C@@H](NC(=O)c1ncnc(N)c1Cl)c1ncc(C(=O)Nc2cc(C(F)(F)F)c(Cl)cn2)s1 + COc1c(OCCCN2CCOCC2)ccc2c3n(c(=NC(=O)c4cnc(N)nc4)nc12)CCN3 :: rule met
CC1(C)CCC(Nc2ncc(C(F)(F)F)c(-c3c[nH]c4c(P(C)(C)=O)c(C#N)ccc34)n2)CN1 (stereo not given) + COc1c(OCCCN2CCOCC2)ccc2c3n(c(=NC(=O)c4cnc(N)nc4)nc12)CCN3 :: rule met
CC(Cn1ccc(-c2ccc(C#N)c(Cl)c2)n1)NC(=O)c1cc(C(C)O)[nH]n1 (stereo not given) + CC(Nc1ccc2c(c1)OCCn1cc(N3C(=O)OCC3C(F)F)nc1-2)C(N)=O :: rule not met
C#Cc1c(F)ccc2cc(O)cc(-c3ncc4c(N5CC6CCC(C5)N6)nc(OCC56CCCN5CC(F)C6)nc4c3F)c12 (stereo not given) + COc1c(OCCCN2CCOCC2)ccc2c3n(c(=NC(=O)c4cnc(N)nc4)nc12)CCN3 :: rule met

## Task Given the entry CC(C)NCC(C(=O)N1CCN(c2ncnc3c2C(C)CC3O)CC1)c1ccc(Cl)cc1 (stereo not given) + COc1c(OCCCN2CCOCC2)ccc2c3n(c(=NC(=O)c4cnc(N)nc4)nc12)CCN3 , would its reported viability, T/C be below 80%?
## Result rule met
